These entries and their values trace back to patent US20060058329A1.

Target Desc: recombinant GST-ALK5 (residues 198-503) (Homo sapiens)
Construct: recombinant GST-ALK5 (residues 198-503)
Sequence (P36897 198-503): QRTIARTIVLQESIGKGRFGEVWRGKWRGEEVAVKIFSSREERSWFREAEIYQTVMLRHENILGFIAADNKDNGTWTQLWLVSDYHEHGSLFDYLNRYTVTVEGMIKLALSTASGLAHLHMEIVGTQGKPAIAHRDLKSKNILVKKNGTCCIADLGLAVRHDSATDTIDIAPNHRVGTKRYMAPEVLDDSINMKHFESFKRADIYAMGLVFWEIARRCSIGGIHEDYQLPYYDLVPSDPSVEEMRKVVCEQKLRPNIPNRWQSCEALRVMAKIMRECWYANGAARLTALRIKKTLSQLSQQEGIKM
Procedure Text: Alk5 fluorescence polarization assay
Measurement Conditions: rhodamine green-labelled ligand 1 nM, ALK5 10 nM, read-out: ALK5 receptor modulator activity (IC50)
Recorded Endpoint: pIC50
Lab note — pIC50 values are minus log10 of concentrations in M.

Compound Structure | Target Desc | pIC50
Cc1cccc(-c2n[nH]cc2-c2ccnc(-c3ccc(OCc4cn(C)cn4)cc3)c2)n1 | recombinant GST-ALK5 (residues 198-503) (Homo sapiens) | 8.30

Would you kindly look at the next entry?
q: Indicate its recorded pIC50; the compound in question is `Cc1cccc(-c2cn[nH]c2-c2ccnc(-c3ccc(OCCN4CCCC4)cc3)c2)n1`
a: 7.77
